Listed compounds paired with reported inhibition at 5 µM
- ASSAY_TARGET: Human TASK-1 channels (Homo sapiens (Human))
- Sequence (O14649 whole entry): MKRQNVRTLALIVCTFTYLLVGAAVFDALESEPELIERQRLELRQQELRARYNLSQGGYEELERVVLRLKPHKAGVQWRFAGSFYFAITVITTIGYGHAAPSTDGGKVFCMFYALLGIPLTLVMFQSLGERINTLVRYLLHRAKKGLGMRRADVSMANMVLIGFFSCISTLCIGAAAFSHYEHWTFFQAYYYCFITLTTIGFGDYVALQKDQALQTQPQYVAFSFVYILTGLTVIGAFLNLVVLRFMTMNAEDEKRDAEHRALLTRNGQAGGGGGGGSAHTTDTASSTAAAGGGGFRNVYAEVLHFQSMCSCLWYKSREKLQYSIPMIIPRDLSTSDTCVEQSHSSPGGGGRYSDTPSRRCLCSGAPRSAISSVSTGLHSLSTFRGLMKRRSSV
- EXPERIMENT_DESCRIPTION: Determination of the activity on the TASK-1 channel in Xenopus oocytes (two-microelectrode voltage clamp)
- Type: cell-based
- COND: compound concentration 5 μM
Use % as the unit, but write only the number.

Field request: inhibition at 5 µM | item: CC[C@@H](NC(=O)c1cc(C(=O)NCC2(c3ccccc3)CCCC2)n2c1CCCC2)c1ccccc1 [16ng]
55

Lookup CC[C@@H](NC(=O)c1cc(C(=O)N2CCCC2C(O)c2ccccc2)n2c1COCC2)c1ccccc1 (stereo partly drawn) [16fj]
89

Next compound up: CC[C@@H](NC(=O)c1cc(C(=O)N2CCCCC2C)n2c1COCC2)c1ccc(C(F)(F)F)nc1 (stereo partly drawn) [16pc]
53

Next:
Look up inhibition at 5 µM: CC[C@H](NC(=O)c1cc(C(=O)N2CCC[C@@H]2C)n2c1COCC2)c1ccc(F)c(C(F)(F)F)c1 [16bp]
90

Quick one: CC[C@@H](NC(=O)c1cc(C(=O)Nc2cncc(F)c2)n2c1CCCC2)c1ccccc1 [16ne]
83

// next record CC[C@@H](NC(=O)c1cc(C(=O)NCc2cccnn2)n2c1COCC2)c1ccccc1 [16jf]
36
